Kindly state growth inhibition for each of the entries shown.
- EXPERIMENT: NCI Yeast Anticancer Drug Screen. Data for the sgs1 mgt1 strain (AID 161);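 also: 0% = growth of cultures given vehicle only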
- EXPERIMENTAL_PARAMETERS: S. cerevisiae sgs1 mgt1 strain, at 50.0 µM, stronger effect = higher value
About 79,000 compounds went through this panel and 15% of them were active in at least one assay; those are over-represented in the sample as a whole.
Numbers only, in %.

Would you mind listing growth inhibition for each of the following molecules?
1. Cc1cccc(C)c1NC(=O)C(Cl)Cl
2. O=P1(O)Oc2ccc3ccccc3c2-c2c(ccc3ccccc23)O1
3. O=C1C(CO)=C[C@H](O)[C@H]2O[C@@H]12
4. CCCCCCCOC(=O)C(CC)CC
5. O=C1CC(Cc2n[nH]c3c2CCC3)CC(=O)N1
6. C/C(=N/Nc1ccc([N+](=O)[O-])cc1[N+](=O)[O-])C1=CCCCC1

A.
1. -3.9
2. -6.1
3. -9.45
4. 5.45
5. -10.2
6. -0.95

Would you mind listing growth inhibition for each of the following molecules?
1. CCN(CC)c1ccc(N=C2C=C(C(=O)Nc3ccc(S(C)(=O)=O)cc3)C(=O)c3ccccc32)c(C)c1
2. S=C1NC=CC(S)N1 (configuration not stated)
3. N#C/C(=C/O)c1ccccc1
4. Cn1nc(C(F)(F)C(F)(F)C(F)(F)F)nc1C(F)(F)C(F)(F)C(F)(F)F

A.
2.55
6.6
-0.75
4.45

Would you mind listing growth inhibition for each of the following molecules?
1. CC[O-].CC[O-].O=Nc1ccc2cc([O-])ccc2c1.O=Nc1ccc2cc([O-])ccc2c1.[Ti+4]
2. O=C1OC(=O)c2c(Cl)c(Cl)c(Cl)c(Cl)c21

A.
1. 59.5
2. 23.9

----------
- EXPERIMENT: NCI Yeast Anticancer Drug Screen. Data for the cln2 rad14 strain (AID 165);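 also: 0% = growth equal to vehicle treated cultures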
- EXPERIMENTAL_PARAMETERS: S. cerevisiae cln2 rad14 strain, at 50.0 µM
- Experimental: Growth inhibition of yeast strains with defined genetic alterations is measured as a screen for potential anti-cancer activity. Selected strains with alterations in DNA damage repair or cell cycle control were exposed to compounds and growth inhibition was measured relative to vehicle treated controls. The strain used in this assay is cln2 rad14
Compounds without any hit were thinned out: in the full panel of roughly 79,000, 15% have a hit. Activity calls are given as the source filed them. Rule as the data show it: active = growth inhibition above about 70%; inactive = the rest.
Give one outcome, nothing more. List: 1 for active, 0 for inactive

>>> category_label("N#C/C=C/c1ccc(Cl)cc1")
0
>>> category_label("O=C(O)CCc1ccc([N+](=O)[O-])cc1Cl")
0
>>> category_label("COCC12CC(CC1=O)C1C2ON2c3ccccc3C(=O)C12c1ccccc1 (stereo not given)")
0
>>> category_label("N#Cc1ccc(NN=NCCCCCCl)cc1")
0
>>> category_label("CN(C)C(=O)CCCCC(=O)N(C)C")
0
>>> category_label("CCOC(OCC)C(O)c1ccccc1 (stereo not given)")
0
>>> category_label("Cn1c(=O)c2[nH]c([N+](=O)[O-])nc2n(C)c1=O")
0
>>> category_label("CC(=O)Nc1ccc(Nc2nc(=O)[nH]c(=O)[nH]2)cc1")
0

Q. How was O=C(O)CCC(=O)c1ccc2c3c(cccc13)CC2 classified in this test?
A. 0

Q. How was O=C1NC(=S)SC1=C1CCCCC1 classified in this test?
A. 0

Q. How was O=[N+]([O-])c1cccc(-c2csc(N=Nc3c(O)[nH]c4ccccc34)n2)c1 classified in this test?
A. 0

Q. How was C=C1C(=O)OC(CCCCCCCCCCCCCC(C)=O)[C@H]1C(=O)O (stereo not given in full) classified in this test?
A. 0

Q. How was CC=NC(C)(C)C classified in this test?
A. 0

Q. How was O=C(O)/C(Cc1ccnc2ccccc12)=N\O classified in this test?
A. 0

Q. How was N#CCCN(N)S(=O)(=O)c1ccccc1 classified in this test?
A. 0

Q. How was CC(C)(C#N)C(C)(C)c1cnc2ccccc2c1 classified in this test?
A. 0

Q. How was O=C(Cc1ccc([N+](=O)[O-])cc1)ON1C(=O)CCC1=O classified in this test?
A. 0

Q. How was COc1ccc(CSC(=S)Nc2ccc(F)c(C)c2)cc1 classified in this test?
A. 0

Q. How was CC1=CC(=C(C#N)C#N)c2ccccc2N1C classified in this test?
A. 0

Q. How was O=C(O)CCc1ccc(O)c(O)c1 classified in this test?
A. 0

Q. How was COc1ccc(N=C2C(=Nc3ccc(OC)cc3)N(c3ccc(OC)cc3)C(=S)N2C)cc1 classified in this test?
A. 0

Q. How was CN(C)[C@@H]1C(=O)C(C(=O)NCNC2CC(C)(C)N(O)C(C)(C)C2)=C(O)C2(O)C(=O)C3=C(O)c4c(O)cccc4[C@@](C)(O)C3CC12 (stereo not given in full) classified in this test?
A. 0
